Cited source: ChEMBL document CHEMBL2321795

System: Staphylococcus aureus
measurementNotes: Antibacterial activity against methicillin-resistant Staphylococcus aureus after 16 hrs by NCCLS agar dilution method
Type: functional
testReadout: MIC (µg/mL)
Field format: number, assumed µg/mL, no unit text.

The recorded MIC for entry CC(C)N1CCN(c2ccc(-c3ccc4c(c3)OC[C@H]3[C@H](CO)OC(=O)N43)cn2)C1=O equals 2

The recorded MIC for entry Cn1nnc(-c2ccc(-c3ccc4c(c3)OC[C@H]3[C@H](CO)OC(=O)N43)cn2)n1 equals 1

The recorded MIC for entry O=C1O[C@@H](CO)[C@@H]2COc3cc(-c4ccc(N5C[C@@H]6CCCN[C@@H]6C5)nc4)ccc3N12 equals 8

The recorded MIC for entry O=C1O[C@@H](CO)[C@@H]2COc3cc(-c4ccc(Cn5cncn5)nc4)ccc3N12 equals 0.5

The recorded MIC for entry O=C1O[C@@H](CO)[C@@H]2COc3cc(-c4ccc(C(O)CO)nc4)ccc3N12 (stereo partly specified) equals 0.5

Here's the next entry for you.
The recorded MIC for entry O=C1OC(CO)CN1c1ccc(-c2ccc3c(c2)OC[C@H]2[C@H](CO)OC(=O)N32)cn1 (stereo partly specified) equals 0.5
